# targetUnderTest: Human NPY1 receptor (Homo sapiens)
# Construct: host or cells: SK-N-MC cells
# Sequence (P25929 whole entry): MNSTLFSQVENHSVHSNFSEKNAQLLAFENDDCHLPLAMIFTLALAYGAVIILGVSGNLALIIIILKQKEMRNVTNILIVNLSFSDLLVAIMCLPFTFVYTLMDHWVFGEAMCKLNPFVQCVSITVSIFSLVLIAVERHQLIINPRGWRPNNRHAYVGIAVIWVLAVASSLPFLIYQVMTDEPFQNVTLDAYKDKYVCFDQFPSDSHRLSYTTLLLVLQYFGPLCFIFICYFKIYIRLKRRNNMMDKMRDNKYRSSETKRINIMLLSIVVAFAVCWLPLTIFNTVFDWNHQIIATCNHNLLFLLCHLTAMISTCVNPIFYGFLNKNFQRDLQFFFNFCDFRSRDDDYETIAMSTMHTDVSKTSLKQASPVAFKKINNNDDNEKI
# assayExplanation: Human NPY1 receptor binding assay ([125I]PYY, SK-N-MC cells)
# assayContext: [125I]PYY, SK-N-MC cells; read-out: hNPYI IC50
pIC50: −log10 of the molar value. Where a name gives a salt, the structure may show the parent alone.
recordedEndpoint: pIC50

>  <compound>
COC(=O)c1ccc(NC(=O)CN2CCC(n3c(=O)[nH]c4ccccc43)CC2)cc1 [Compound 360, reference compound]

>  <recordedEndpoint>
pIC50

>  <experimentalResult>
< 5.30

$$$$
>  <compound>
O=C(CN1CCC(n2c(=O)[nH]c3ccccc32)CC1)Nc1ccc(Oc2ccccc2)cc1 [Compound 352, reference compound]

>  <recordedEndpoint>
pIC50

>  <experimentalResult>
< 5.30

$$$$
>  <compound>
O=C(CN1CCC(n2c(=O)[nH]c3ccccc32)CC1)Nc1ccc(C(F)(F)F)cc1 [Compound 356, reference compound]

>  <recordedEndpoint>
pIC50

>  <experimentalResult>
< 5.30

$$$$
>  <compound>
COCCNC(=O)CN1CCC(n2c(=O)[nH]c3ccccc32)CC1

>  <recordedEndpoint>
pIC50

>  <experimentalResult>
< 5.30

$$$$
>  <compound>
CCNC1(C(N)=O)CCN(CC(=O)Nc2ccc(C3CCCCC3)cc2)CC1.O=C(O)C(=O)O

>  <recordedEndpoint>
pIC50

>  <experimentalResult>
< 5.30

$$$$
>  <compound>
CN(C)c1ccc(NC(=O)CN2CCC(n3c(=O)[nH]c4ccccc43)CC2)cc1 [Compound 353, reference compound]

>  <recordedEndpoint>
pIC50

>  <experimentalResult>
< 5.30

$$$$
>  <compound>
CCCCCCc1ccc(NC(=O)CN2CCC(n3c(=O)[nH]c4ccccc43)CC2)cc1

>  <recordedEndpoint>
pIC50

>  <experimentalResult>
< 5.30

$$$$
>  <compound>
O=C(CN1CCC(n2c(=O)[nH]c3ccccc32)CC1)Nc1ccc2c(c1)Cc1ccccc1-2

>  <recordedEndpoint>
pIC50

>  <experimentalResult>
< 5.30

$$$$
>  <compound>
CCN(CC)c1ccc(NC(=O)CN2CCC(n3c(=O)[nH]c4ccccc43)CC2)cc1 [Compound 336, reference compound]

>  <recordedEndpoint>
pIC50

>  <experimentalResult>
< 5.30

$$$$
>  <compound>
COc1ccc(NC(=O)CN2CCC(n3c(=O)[nH]c4ccccc43)CC2)cc1 [Compound 361, reference compound]

>  <recordedEndpoint>
pIC50

>  <experimentalResult>
< 5.30

$$$$

Query: pIC50; subject: CC(C)c1ccc(NC(=O)CN2CCC(n3c(=O)[nH]c4ccccc43)CC2)cc1
< 5.30

Query: pIC50; subject: NC(=O)C1CCCN1CC(=O)Nc1ccc(C2CCCCC2)cc1 (centres unmarked) [Compound 297, hydrochloride]
< 5.30

Quick one: pIC50 for CC(=O)c1ccc(NC(=O)CN2CCC(n3c(=O)[nH]c4ccccc43)CC2)cc1 [Compound 354, reference compound] ?
< 5.30

Which pIC50 value belongs to CCOc1ccc(NC(=O)CN2CCC(n3c(=O)[nH]c4ccccc43)CC2)c2ccccc12 [Compound 346, reference compound] ?
< 5.30

Dear colleague, I am looking for the recorded pIC50 of the following compound: Nc1cc(S(=O)(=O)c2ccccc2)ccc1NC(=O)CN1CCC(n2c(=O)[nH]c3ccccc32)CC1 [Compound 335, reference compound]
< 5.30

Could you tell me which pIC50 is on file for Cl.O=C(CN1CCC(n2c(=O)[nH]c3ccccc32)CC1)Nc1ccc(C(=O)C(=O)c2ccccc2)cc1 [Compound 265, hydrochloride] ?
< 5.30

What does the record list as pIC50 for O=C(CN1CCC(n2c(=O)[nH]c3ccccc32)CC1)Nc1cccc(C(=O)c2ccccc2)c1 ?
< 5.30

Dear colleague, I am looking for the recorded pIC50 of the following compound: CC(C)OCCCNC(=O)CN1CCC(n2c(=O)[nH]c3ccccc32)CC1.Cl [Compound 283, hydrochloride]
< 5.30

Which pIC50 is reported for this compound? CC(C(=O)Nc1ccc(C(C)(C)C)cc1)N1CCC(n2c(=O)[nH]c3ccccc32)CC1 (centres unmarked)
< 5.30

Please look up its pIC50: Cl.O=C(CN1CCC(n2c(=O)[nH]c3ccccc32)CC1)NCCc1ccccc1 [Compound 280, hydrochloride]
< 5.30

These data points were gathered from patent US6410792B1.
